Molecular target: recombinant α-synuclein fibrils (Homo sapiens, UniProt P37840)
Test: Thioflavin T competitive binding fluorescence assay
Conditions: read-out: Thioflavin T assay Ki, mean ± SD, at least three experiments, NB = no binding was measurable (concentrations up to 10 μM)
pKi: −log10 of the molar value.
EXPERIMENTAL ENDPOINT: pKi

Please review the following examples before continuing.
# MOLECULE, pKi
rows = [
    ("COCOc1ccc2nc(-c3noc(-c4ccnc(OC)c4)n3)ccc2c1", "< 5.00"),
    ("COc1cccc2nc(/C=C/c3ccccc3)ccc12 [Compound 1, (E)-5-Methoxy-2-styrylquinoline]", "< 5.00"),
    ("COc1cc(/C=C/c2ccc3cc(OCCF)ccc3n2)ccn1", 7.74),
]

# `CC(C)Oc1ccc2nc(-c3noc(-c4ccn5ccnc5c4)n3)ccc2c1` with recombinant α-synuclein fibrils (Homo sapiens, UniProt P37840): pKi is < 5.00

# `COc1cccc2ccc(/C=C/c3ccncc3)nc12` with recombinant α-synuclein fibrils (Homo sapiens, UniProt P37840): pKi is < 5.00

# `COc1cc2ccccc2nc1/C=C/c1ccncc1` with recombinant α-synuclein fibrils (Homo sapiens, UniProt P37840): pKi is < 5.00

# `COc1cccc2nc(/C=C/c3ccncc3)ccc12` with recombinant α-synuclein fibrils (Homo sapiens, UniProt P37840): pKi is 7.25

# `COc1ccc2nc(/C=C/c3ccnc(F)c3)ccc2c1` with recombinant α-synuclein fibrils (Homo sapiens, UniProt P37840): pKi is < 5.00

====

Molecular target: recombinant α-synuclein fibrils (Homo sapiens)
Assay: Thioflavin T competitive binding fluorescence assay
Conditions: read-out: Thioflavin T assay Ki, mean ± SD, at least three experiments, NB = no binding was measurable (concentrations up to 10 μM)
Ki values for the molecules below.

Please review the following examples before continuing.
# MOLECULE, Ki
rows = [
    ("COc1ccc2nc(/C=C/c3ccncc3Cl)ccc2c1", "> 10 µM"),
    ("COc1cccc2ccc(/C=C/c3ccccc3)nc12 [Compound 4, (E)-8-Methoxy-2-styrylquinoline]", "> 10 µM"),
]

Ki in this record for `COc1ccc2nc(-c3noc(-c4cccnc4)n3)ccc2c1` : > 10 µM

Ki in this record for `COc1cc(/C=C/c2ccncc2)nc2ccccc12` : > 10 µM

Ki in this record for `COc1ccc2nc(/C=C/c3ccncc3)ccc2c1` : 0.052 µM
